# credit: patent US20250382354A1

system-under-test: SARS-CoV FP peptide (SARS-CoV), P59594
Sequence (P59594 794-813 limits assumed): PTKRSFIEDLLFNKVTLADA
test-summary: peptide ELISA
property-label: EC50
Reply with the number, then its unit.

# query: EC50 of entry fp.001 (antibody, V domains shown) VH: VQLVESGGGVVQPGRPLRLSCSGSGFIFSNYAMHWVRQAPGKGLEWVAIISFDARNKRYADSVEGRFTISRDNSKNILYLQMNSLRLEDSAVYFCARDLFLSDYDNGVYDPTRGGFDYWGQGTLVTVSS VL: EIVMTQSPATLSLSPGERATLSCRASQSVNNRLAWYQQKLGQPPRLLISGASTRATGIPARFTGSGSGTEFTLTISSLQSEDFAVYYCQQYHDWPLLSFGGGTKVEIK
0.0289 µg/mL

Endpoint output: EC50 of fp.002 (antibody, V domains shown) VH: VQLVESGGGVVQPGTSLRLSCAGSGFNFDNYAIHWVRQAPGQGLEWVAIISYEARNKKYAGSVTGRFSISRDNSKSMVYLQMDSLRGEDTAVYYCARDLFLSDYDRSGYDPTRGGFDLWGQGTLVTVSS VL: EIVMTQSPATLSVSPGERATLSCRASQSVSSSLAWYQHKLGQAPRLLIYGASTRATGIPGRFSGSGSGTEFTLTISSLQSEDVAIYYCQQYGDWPLVTFGGGTKVEIK . Value?
0.0285 µg/mL

For the binder fp.008 (antibody, V domains shown) VH: VQLVESGGGVVQPGRSLRLSCRASGFRFNNYAMHWVRQAPGKGLEWVAIISYEARNEKYAASVKGRFSISRDNAKNTLYLQMNSLRPEDTAIYYCARDVFLSDYDQSGYDVTRGGFDYWGQGTLVTVSS VL: EIVMTQSPATLSVSPGESATLSCRASQSVSSSLAWYQHKFGQAPRLLIYGASTRATGIPDRFSGSGSGMEFTLTISSLQSEDVAIYYCQQYGDWPLVTFGGGTKVEIK , what EC50 is on record?
0.0267 µg/mL
